The measured values listed here are drawn from paper PMC12133982.

biological target: HLA-C0102 (Homo sapiens, UniProt P10321, A176E/A330V/A35S/A97T/C350S/D114A/D33F/L171W/L180R/L218V/M285V/M309V/M331V/P208H/Q277E/Q291P/R121W/R243W/R30K/S123C/S140Y/S297R/T329A/T363A/V272M/V319A); experiment: Competitive peptide binding assay, CIR-C0102; settings: read-out: Inhibition % of Cy5-reference peptide binding
Peptide text beside a SMILES is read from it.
inhibition at 15 µM values for the molecules below.
Quantity measured: inhibition at 15 µM (%)

1. CC[C@H](C)[C@H](NC(=O)[C@@H]1CCCN1C(=O)[C@@H](NC(=O)[C@H](Cc1c[nH]cn1)NC(=O)[C@H](CCCCN)NC(=O)[C@H](CO)NC(=O)[C@H](Cc1ccc(O)cc1)NC(=O)[C@@H](NC(=O)[C@@H](N)CCCCN)[C@@H](C)CC)[C@@H](C)O)C(=O)O [Epitope M34] (H-KIYSKHTPI-OH; N-terminus and C-terminus assumed)    91.2
2. CC(C)[C@H](NC(=O)CNC(=O)[C@H](CCCNC(=N)N)NC(=O)[C@@H](NC(=O)[C@H](Cc1ccccc1)NC(=O)[C@H](CO)NC(=O)[C@@H](N)CC(N)=O)[C@@H](C)O)C(=O)N[C@@H](Cc1ccc(O)cc1)C(=O)N[C@@H](Cc1ccc(O)cc1)C(=O)O [Epitope M129] (H-NSFTRGVYY-OH; N-terminus and C-terminus assumed)    34.3
3. CC[C@H](C)[C@H](N)C(=O)N[C@@H](C)C(=O)N[C@@H](CC(N)=O)C(=O)N[C@@H](CCC(N)=O)C(=O)N[C@@H](Cc1ccccc1)C(=O)N[C@@H](CC(N)=O)C(=O)N[C@@H](CO)C(=O)N[C@@H](C)C(=O)N[C@H](C(=O)O)[C@@H](C)CC [Epitope M37] (H-IANQFNSAI-OH; N-terminus and C-terminus assumed)    86.1
4. CC[C@H](C)[C@H](NC(=O)[C@@H](NC(=O)[C@H](CC(N)=O)NC(=O)[C@H](CCCNC(=N)N)NC(=O)[C@H](CCCCN)NC(=O)[C@@H](NC(=O)[C@H](Cc1ccc(O)cc1)NC(=O)[C@H](C)NC(=O)[C@@H](N)Cc1ccccc1)[C@@H](C)O)C(C)C)C(=O)O [Epitope M23] (H-FAYTKRNVI-OH; N-terminus and C-terminus assumed)    78.9
5. CC[C@H](C)[C@H](NC(=O)[C@H](CC(N)=O)NC(=O)[C@H](CC(=O)O)NC(=O)[C@H](CO)NC(=O)[C@H](CO)NC(=O)[C@@H](N)CO)C(=O)N[C@@H](C)C(=O)N[C@@H](CC(C)C)C(=O)N[C@@H](CC(C)C)C(=O)O [Epitope M111] (H-SSSDNIALL-OH; N-terminus and C-terminus assumed)    47.1
6. CSCC[C@H](NC(=O)[C@H](CO)NC(=O)[C@H](CCCNC(=N)N)NC(=O)[C@@H](NC(=O)[C@H](CCCNC(=N)N)NC(=O)[C@H](C)NC(=O)[C@H](Cc1ccccc1)NC(=O)[C@H](CC(C)C)NC(=O)[C@@H](N)CCCNC(=N)N)[C@@H](C)O)C(=O)O [Epitope M41] (H-RLFARTRSM-OH; N-terminus and C-terminus assumed)    35.7
